For each entry below, report its IC50 value.
# Assayed system: IRAK4 (Homo sapiens)
# Construct: His (N); TEV cleavage site (N)
# Sequence (Q9NWZ3 whole entry): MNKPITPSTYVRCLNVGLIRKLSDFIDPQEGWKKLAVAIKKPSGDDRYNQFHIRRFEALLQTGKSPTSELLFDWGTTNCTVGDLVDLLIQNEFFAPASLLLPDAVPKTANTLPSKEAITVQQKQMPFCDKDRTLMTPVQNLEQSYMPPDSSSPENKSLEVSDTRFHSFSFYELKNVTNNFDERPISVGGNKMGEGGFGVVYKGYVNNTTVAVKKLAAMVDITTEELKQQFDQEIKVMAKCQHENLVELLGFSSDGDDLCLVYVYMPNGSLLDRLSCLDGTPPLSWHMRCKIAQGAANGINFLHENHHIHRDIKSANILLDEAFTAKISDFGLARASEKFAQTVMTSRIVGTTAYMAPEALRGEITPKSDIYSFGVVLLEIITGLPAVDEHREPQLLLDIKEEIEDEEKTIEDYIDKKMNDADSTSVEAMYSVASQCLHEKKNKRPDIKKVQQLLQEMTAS
# Experimental details: IRAK4 Enzymatic Assay
# Conditions used: His-TEV-IRAK4 20 ng/well, ATP 2 μM, STK1-biotin peptide 300 nM, 3 hours at 30° C., FlashPlate radioactivity

- Compound: "Cn1cc(-c2cccc(-c3ncc(-c4cnn(C5CC6COCC(C5)N6)c4)cn3)c2)cn1 (stereo not shown)"
  Assay result: "< 100 nM"
- Compound: "COCCN(C)C(=O)[C@H]1CC[C@H](n2cc(-c3cnc(-c4cccc(-c5cnn(C)c5)c4)nc3)cn2)CC1"
  Assay result: "< 100 nM"
- Compound: "Cn1cc(-c2cccc(-c3ncc(-c4cnn([C@H]5CCC[S@@+]([O-])C5)c4)cn3)c2)cn1 (racemic)"
  Assay result: "< 100 nM"
- Compound: "Cn1cc(-c2cccc(-c3ncc(-c4cnn([C@H]5CC[C@]6(CCC(=O)N6)CC5)c4)cn3)c2)cn1"
  Assay result: "< 100 nM"
- Compound: "Cn1cc(-c2cccc(-c3ncc(-c4cnn(CC(N)=O)c4)cn3)c2)cn1"
  Assay result: "1000 to 5000 nM"
- Compound: "COCCO[C@H]1CC[C@@H](n2cc(-c3cnc(-c4cccc(-c5cnn(C)c5)c4)nc3)cn2)CC1"
  Assay result: "100 to 1000 nM"

Now examine the next entry.
Exercise: Report IC50 for Cn1cc(-c2cccc(-c3ncc(-c4cnn(CC(=O)N5C6CCC5CC(O)C6)c4)cn3)c2)cn1 (stereo not shown) [Example 127] tested on IRAK4 (Homo sapiens).
Key: 100 to 1000 nM
